molecular target: T1, AAV8 (adeno-associated virus 8); test: SPR, AAV amine-coupled to CM5 chip;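 note: nanobodies flowed as analyte at seven concentrations spanning 1–100 nM over immobilized AAV (500–800 RU), kinetic constants derived by fitting the binding curves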
T1 construct: also called adeno-associated virus serotype 8
For each entry below, report its Kd value.
The reply should contain only the number, in nM.

Problem: What Kd value was documented for this binder, A4-095 (VHH) VHH: VQLQESGGGLVQPGGSLRLSCAASGSSFSANTMGWYRQAPGKQRELVATITRGGNTNYGDSVKGRFTISRDNAKDTVYLQMNSLRPEDTAVYYCHIDEIRESTWTTSNLWGQGTQVTVSS ?
Solution: 2.25

Problem: Next record, please: A4-089 (VHH) VHH: VQLQESGGGLVQPGGSLRLSCAASGSNFSINTMGWYRQAPGKQRELVATFTRAGNTNYADSVKGRFTISRDNGKNTVYLQMNSLRPEDTAVYYCHVDEVRDSSWTTSNLWGQGTQVTVSS
Solution: 4.48

Problem: Next binder: A4-091 (VHH) VHH: VQLQESGGGLVQPGGSLRLSCAASGSRFSINTMGWYRQRAGKQRELVATVTRDGSTTYANSVKGRFTISRDNAKNTVYLQMNSLRPEDTAVYYCHVDELRQSTWTTSNLWGQGTQVTVSS
Solution: 99.4

Problem: Same lookup for A4-071 (VHH) VHH: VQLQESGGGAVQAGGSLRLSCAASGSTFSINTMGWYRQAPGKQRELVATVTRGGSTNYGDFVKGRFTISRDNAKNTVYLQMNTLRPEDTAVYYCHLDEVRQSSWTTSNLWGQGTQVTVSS , please.
Solution: 16.4

Problem: Quick one: A4-064 (VHH) VHH: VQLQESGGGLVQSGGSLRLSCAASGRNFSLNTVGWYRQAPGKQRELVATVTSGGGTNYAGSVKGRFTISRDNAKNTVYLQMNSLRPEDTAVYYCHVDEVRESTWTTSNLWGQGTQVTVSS
Solution: 227

Problem: Ok, now A4-080 (VHH) VHH: VQLQESGGGLVQPGGSLRLSCAASGSRFSLNTMGWYRQAPGKQRELVATVTRGGSTNYADFVKGRFTISRDNAKNTVYLQMNSLRPEDTAVYYCHVDELRESGWTTSNLWGQGTQVTVSS
Solution: 191

src = patent US20260193326A1
